- Tested on: HCT-15
- Assay Comment: Antiproliferative activity against human HCT15 cells at 1 uM after 72 hrs by MTS assay
- Format: functional
- Condition: HCT-15, 72 h
Value Kind: inhibition at 1 µM (%)
Numbers only, in %.

Worked examples follow.
Compound String	Value Kind	Reported
COC(=O)c1ccc(O)c(-c2nc(C(=S)NCCOCCOCCNC(=S)c3csc(-c4cc(C(=O)OC)ccc4O)n3)cs2)c1	inhibition at 1 µM	1
CC(=O)N(O)CCCCCNC(=O)CCC(=O)N(O)CCCCCNC(=O)CCC(=O)N(O)CCCCCN	inhibition at 1 µM	0
O=C(O)c1ccc(O)c(-c2nc(C(=S)NCCOCCOCCNC(=S)c3csc(-c4cc(C(=O)O)ccc4O)n3)cs2)c1	inhibition at 1 µM	0
O=C(O)c1ccc(O)c(-c2nc(C(=O)NCCOCCOCCNC(=O)c3csc(-c4cc(C(=O)O)ccc4O)n3)cs2)c1	inhibition at 1 µM	0

In the following, a different compound is considered.
May I ask what inhibition at 1 µM has been recorded for "COC(=O)c1ccc(O)c(-c2nc(C(=O)NCCOCCOCCNC(=O)c3csc(-c4cc(C(=O)OC)ccc4O)n3)cs2)c1" ?
11

---

- Assay Comment: Induction of iron chelating activity by calcein fluorescence assay
- Type: physicochemical
Value Kind: IC50
Include the unit right after the number.

Worked examples follow.
Compound	IC50
O=C(O)c1ccc(O)c(-c2nc(C(=S)NCCOCCOCCNC(=S)c3csc(-c4cc(C(=O)O)ccc4O)n3)cs2)c1	70 nM
CC(=O)N(O)CCCCCNC(=O)CCC(=O)N(O)CCCCCNC(=O)CCC(=O)N(O)CCCCCN [DEFEROXAMINE]	4400 nM
COC(=O)c1ccc(O)c(-c2nc(C(=S)NCCOCCOCCNC(=S)c3csc(-c4cc(C(=O)OC)ccc4O)n3)cs2)c1	500 nM

May I ask what IC50 has been recorded for "COC(=O)c1ccc(O)c(-c2nc(C(=O)NCCOCCOCCNC(=O)c3csc(-c4cc(C(=O)OC)ccc4O)n3)cs2)c1" ?
1000 nM

---

- Assay Comment: Antiproliferative activity against human HepaRG cells after 72 hrs by MTT assay
- Type: functional, cell-based
Value Kind: pIC50
Numbers only, as −log10 of the molar value.

Worked examples follow.
Compound	pIC50
COC(=O)c1ccc(O)c(-c2nc(C(=S)NCCOCCOCCNC(=S)c3csc(-c4cc(C(=O)OC)ccc4O)n3)cs2)c1	4.38
CC(=O)N(O)CCCCCNC(=O)CCC(=O)N(O)CCCCCNC(=O)CCC(=O)N(O)CCCCCN [DEFEROXAMINE]	4.30
O=C(O)c1ccc(O)c(-c2nc(C(=O)NCCOCCOCCNC(=O)c3csc(-c4cc(C(=O)O)ccc4O)n3)cs2)c1	3.92
COC(=O)c1ccc(O)c(-c2nc(C(=O)NCCOCCOCCNC(=O)c3csc(-c4cc(C(=O)OC)ccc4O)n3)cs2)c1	4.19

In the following, a different compound is considered.
May I ask what pIC50 has been recorded for "O=C(O)c1ccc(O)c(-c2nc(C(=S)NCCOCCOCCNC(=S)c3csc(-c4cc(C(=O)O)ccc4O)n3)cs2)c1" ?
3.94

---

- Test system: SK-OV-3
- Assay Comment: Antiproliferative activity against human SKOV3 cells at 10 uM after 72 hrs by MTS assay
- Assay type: functional
- Condition: SK-OV-3, 72 h
Please respond with reported inhibition at 10 µM for every item in the list.
One number for each entry, in %.

Molecule	Result Units	inhibition at 10 µM
CC(=O)N(O)CCCCCNC(=O)CCC(=O)N(O)CCCCCNC(=O)CCC(=O)N(O)CCCCCN [DEFEROXAMINE]	%	52
COC(=O)c1ccc(O)c(-c2nc(C(=S)NCCOCCOCCNC(=S)c3csc(-c4cc(C(=O)OC)ccc4O)n3)cs2)c1	%	45
COC(=O)c1ccc(O)c(-c2nc(C(=O)NCCOCCOCCNC(=O)c3csc(-c4cc(C(=O)OC)ccc4O)n3)cs2)c1	%	22
O=C(O)c1ccc(O)c(-c2nc(C(=S)NCCOCCOCCNC(=S)c3csc(-c4cc(C(=O)O)ccc4O)n3)cs2)c1	%	2

In the following, a different molecule is considered.
May I ask what inhibition at 10 µM has been recorded for "O=C(O)c1ccc(O)c(-c2nc(C(=O)NCCOCCOCCNC(=O)c3csc(-c4cc(C(=O)O)ccc4O)n3)cs2)c1" ?
7
